assay notes: NCI Yeast Anticancer Drug Screen. Data for the sgs1 mgt1 strain (AID 161);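 note: 0% = growth of cultures given vehicle only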
condition notes: S. cerevisiae sgs1 mgt1 strain, at 5.0 µM (retest, dose inferred, filed as 0.5), active compounds read high
This is part of a sample that, as a whole, favours compounds with a hit. Of some 79,000 tested, about 15% had one in any assay. Active and inactive are the calls of the source. Cut-off read from the data, not from the text of the source: active = growth inhibition above about 70%; inactive = the rest.
Item-by-item account of growth inhibition

Examples with answers:
input smiles	value reported
Cc1cccc2nc3nc(Cl)c(Cl)nc3n12	13% (inactive)
Oc1c(Cl)cc(Cl)cc1/C=C1\C=Nc2ccccc21	-7% (inactive)
OCCSCc1cc(Cl)cc(Cl)c1O	-6% (inactive)

Would you kindly look at the next entry?
Give the measured growth inhibition of "CC(=O)c1sc2c(c1O)c(=O)n(-c1ccccc1)c(=S)n2-c1ccccc1" .
10% (inactive)

----------
assay notes: NCI Yeast Anticancer Drug Screen. Data for the cln2 rad14 strain (AID 165);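 note: 0% = growth equal to vehicle treated cultures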
condition notes: S. cerevisiae cln2 rad14 strain, at 50.0 µM
The panel holds about 79,000 compounds, 15% with a hit somewhere; the sample as a whole holds those more often. The source made the active and inactive calls. No stated cut-off is given here; in the data, active means growth inhibition above about 70%; inactive means the rest.
Hello, when you answer, please use one of the following outcomes: true (active), false (inactive)

// return assay outcome for "CCOC(=O)C[n+]1c(C)sc2ccccc21"
false

# iterate: "Nc1c(/C=C/c2cc3ccc(C4=NCCN4)cc3[nH]2)[nH]c2cc(C3=NCCN3)ccc12"
true

Subsequent entry: "NCCNCCNCc1c2ccccc2c(CNCCNCCN)c2ccccc12"
true

And the next one, "CC(C)COP(=O)(OCC(C)C)C(NS(=O)(=O)c1ccccc1)(C(F)(F)F)C(F)(F)F" ?
false

Do the same for CCOC(CCl)Oc1c(C(C)C)cc(C(C)C)c(Cl)c1C (configuration not stated) please
true

Now give it for "O=C(/C=C/c1ccccc1)c1cc2c(cc1O)OCO2" too.
false

And for "O=C1CSC(Cc2nc3ccccc3[nH]2)=N1" ?
false

----------
In this section we review reported growth inhibition values for a set of molecules.
assay notes: NCI Yeast Anticancer Drug Screen. Data for the mlh1 rad18 strain (AID 175)
condition notes: S. cerevisiae mlh1 rad18 strain growth inhibition; at 5.0 µM (retest, dose inferred, filed as 0.5); active compounds read high
About 79,000 compounds went through this panel and 15% of them were active in at least one assay; those are over-represented in the sample as a whole.
Give a bare numeral; the unit % is implied.

molecule	measure unit	value reported
Clc1nssc1=Nc1nonc1-c1ccccc1	%	49
NC(=O)Nc1cc(=O)[nH]c(=S)[nH]1	%	-3
N#CC(C#N)=C/C=C/c1c(Cl)cccc1Cl	%	8
COc1ccc(C2=NN(c3ccccc3)C[N+](c3ccc(C)cc3)=N2)cc1	%	13
Cc1ccc(C2(O)CCN(Cc3ccccc3)CC2)cc1	%	37

Which growth inhibition is reported for this molecule? "C=C(c1ccccc1)[P+](c1ccccc1)(c1ccccc1)c1ccccc1"
98

Now consider CC(C)C1=CC23CCC4C(C)(C(=O)O)CCCC4(C)C2CC1c1c(O)ccc(O)c13 (configuration not stated) .
81

----------
growth inhibition by entry:
assay notes: NCI Yeast Anticancer Drug Screen. Data for the mlh1 rad18 strain (AID 175)
condition notes: S. cerevisiae mlh1 rad18 strain growth inhibition; at 5.0 µM (retest, dose inferred, filed as 0.5); active compounds read high
Compounds without any hit were thinned out: in the full panel of roughly 79,000, 15% have a hit.
Number only, in %; omit the unit.

compound	measured metric	value reported
CCc1ccc2ccc3ccc(CC)nc3c2n1	growth inhibition	85
CSc1nc(C)cc(SCc2ccc(Cl)cc2Cl)n1	growth inhibition	-2
O=c1c2ccccc2sc2cccc(NCCCN3CCN(CCCNc4cccc5sc6ccccc6c(=O)c45)CC3)c12	growth inhibition	-3

Any idea what its growth inhibition is? The compound is "O=CNc1ccc(Oc2ccc(NC=O)cc2)cc1"
17

And "CSC(=S)N/N=C\C(C)=N/N=C(N)N" ?
30

----------
assay notes: NCI Yeast Anticancer Drug Screen. Data for the mlh1 rad18 strain (AID 175)
condition notes: S. cerevisiae mlh1 rad18 strain growth inhibition; at 50.0 µM (retest, dose inferred, filed as 5.0); active compounds read high
This is part of a sample that, as a whole, favours compounds with a hit. Of some 79,000 tested, about 15% had one in any assay.
If the reported growth inhibition equals or exceeds 90%, assign Satisfied. If not, assign Not satisfied.

Check out these entries, answers already filled in.
compound	cat
Fc1ccccc1CN1COc2c(cc(Cl)c3cccnc23)C1	Satisfied
Cc1cc(SCC(=O)c2ccccc2)cc(C)[o+]1	Not satisfied
CNc1ccc(C(=O)NC(CCCCNC(=O)OCc2ccccc2)C(=O)OC)cc1 (stereo not drawn)	Not satisfied
N[C@@H]1CCCC[C@@H]1N.O=C([O-])CN(CP(=O)([O-])[O-])CP(=O)([O-])[O-].[Pt+2]	Not satisfied
CN1CCN(C2=C(Cl)C3(OCCS3)C(F)(F)C2(F)F)CC1 (stereo not drawn)	Not satisfied

Is the recorded value of growth inhibition equal to or greater than 90% for this compound? "CC(=O)Oc1ccc(-c2ccc(Br)cc2)cc1"
Satisfied

Thanks! And "Clc1ccc(/C=N\Nc2ccccc2)c(Cl)c1" ?
Satisfied

Now consider "CCCCCCCCCCC(NC(C)=O)(C(=O)OCC)C(=O)OCC" .
Satisfied

----------
assay notes: NCI Yeast Anticancer Drug Screen. Data for the mlh1 rad18 strain (AID 175)
condition notes: S. cerevisiae mlh1 rad18 strain growth inhibition; at 50.0 µM; active compounds read high
The panel holds about 79,000 compounds, 15% with a hit somewhere; the sample as a whole holds those more often.
measured metric: growth inhibition (%)
Give just the numeric value; % need not be written.

compound	measure unit	growth inhibition
COc1ccc(/C=C/C(C(=O)O)C(=O)O)cc1	%	78
Oc1cc(Cl)cc2c1-c1ccc(Cl)cc1C2O (stereo unspecified)	%	95.5
CC(/C=C/c1cccs1)=N\NC(=S)NCC(C)C	%	97
CSC(=S)n1nc(-c2ccccc2)c(N=Nc2ccc(Br)cc2)c1-c1ccccc1	%	-10.2
O=C(O)CCC12CCCCC1=NC1(CCCCC1)NC2=O (stereo unspecified)	%	55.6

Requested field: growth inhibition. Item: "Clc1ccc(C2=NCON=C2c2ccc(Cl)cc2)cc1"
-18.7

Queued: O=C(CC(O)(C(F)(F)F)C(F)(F)Cl)CC(O)(C(F)(F)F)C(F)(F)Cl (stereo unspecified)
99.4

One more compound: "CCC[CH2][Sn]([CH2]CCC)([NH]c1ncnc2[nH]cnc12)[NH]c1ncnc2[nH]cnc12"
86.9

Also, "CCCC/C(=N/Nc1ccc([N+](=O)[O-])cc1)C(=O)O" please.
57.4

Input "Clc1nc(Cl)nc(N2CCCc3ccccc32)n1"
74.3

----------
assay notes: NCI Yeast Anticancer Drug Screen. Data for the mec2-1 strain (AID 157)
condition notes: S. cerevisiae mec2-1 strain, at 50.0 µM (retest, dose inferred, filed as 5.0), active compounds read high
About 79,000 compounds went through this panel and 15% of them were active in at least one assay; those are over-represented in the sample as a whole.
measured metric: growth inhibition (%)
# output: bare number, implied unit %

molecule	growth inhibition / %
O=C1CCCCCCC2=C1C(Sc1ccccc1)CC2 (centres undefined)	25
CCOC(=O)C(Br)C(Br)c1cccc(Cl)c1 (centres undefined)	99
CCOC(=O)C1CCN(Cc2ccccc2)CC1=O (centres undefined)	92
Cc1cc(NS(=O)(=O)c2ccc(N)cc2)no1.[Ag]	99
CCCCN(CCCC)CN1C(=O)/C(=C/c2ccc(NC(C)=O)cc2)NC1=S	64

Recorded growth inhibition of O=C(OCC1CCCO1)N(c1ccccc1)c1ccccc1 (centres undefined) , please.
21

And then "CN1C(=O)[C@@H]2N(N(C)C1=O)[C@@]1(Br)C(=O)N(C)C(=O)[C@@]21Br" , what is it?
57

Another molecule to check: "N=C1C(=O)c2ccccc2-c2ccccc21"
99

----------
assay notes: NCI Yeast Anticancer Drug Screen. Data for the rad50 strain (AID 155);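 note: 0% = growth of vehicle-only cultures of the same strain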
condition notes: S. cerevisiae rad50 strain growth inhibition; at 50.0 µM (retest, dose inferred, filed as 5.0); active compounds read high
About 79,000 compounds went through this panel and 15% of them were active in at least one assay; those are over-represented in the sample as a whole.
Let's look at some molecules and their measured growth inhibition.
Report the value in % with no unit label.

A selection of reference data follows.
molecule	growth inhibition (%)
Cc1ccc(O)c(C(C)c2ccccc2)c1 (stereo not drawn)	97
N#CC(C(=O)C(=O)Nc1ccc(Cl)c(Cl)c1)c1c(Cl)cccc1Cl (stereo not drawn)	4

Look up growth inhibition for this molecule: O=C(O)C(O)C(O)C(O)C(O)CO.[Ag] (stereo not drawn)
98

----------
assay notes: NCI Yeast Anticancer Drug Screen. Data for the bub3 strain (AID 167)
condition notes: S. cerevisiae bub3 mutant strain, at 5.0 µM (retest, dose inferred, filed as 0.5), active compounds read high
About 79,000 compounds went through this panel and 15% of them were active in at least one assay; those are over-represented in the sample as a whole.
growth inhibition listing for selected molecules.
Write the number in % without appending the unit.

Sample records with growth inhibition:
molecule	growth inhibition [%]
COc1ccc(CN2COc3c(cc(C)c4cccnc34)C2)cc1	-3
CC1C[N+](C)(C)C(C)C(=O)C1(c1ccccc1)c1ccccc1 (centres undefined)	-4
CC1=Nc2ccccc2/C1=C\c1c(C)[nH]c2ccccc12	53

Field: next molecule
Need growth inhibition, item C1=CC2OC2CCCCCCCC1 (mixture of isomers)
-5

Origin of the recorded values: PubChem BioAssay (NCI)
